system: Saccharomyces cerevisiae; assay: protein stability index of tFT-peptide fusion (C-terminal peptide) (PSI (0-1 scale)); higher = more stable (slower turnover); settings: genetic background: das1 deletion; temperature: 30 C
value.type: protein stability index
Answer with a bare number; do not write a unit.

Answered cases to consult:
FSVEQREKPSNN [GRX6 C-terminal 12 aa]: 0.694
AGEKTVAELMEN [PYP1 C-terminal 12 aa]: 0.679
ISICILDLASHL [YBL071C C-terminal 12 aa]: 0.67

Lab note: measured protein stability index of KPFYYKIYRFWC [SAM3 C-terminal 12 aa] was 0.735

Lab note: measured protein stability index of SLDQEIQSLLSK [GPX2 C-terminal 12 aa] was 0.69

Lab note: measured protein stability index of RVRRRLFAPEST [SLD3 C-terminal 12 aa] was 0.716

Lab note: measured protein stability index of GHLSSSRRRLRT [SUV3 C-terminal 12 aa] was 0.722

Lab note: measured protein stability index of DIYNQLHMFGEK [IGD1 C-terminal 12 aa] was 0.663

###

Measured protein stability index of individual entries
system: Saccharomyces cerevisiae; experiment: protein stability index of tFT-peptide fusion in wild type (PSI (0-1 scale)); higher = more stable (slower turnover); conditions: genetic background: wild type
Answer with a bare number; do not write a unit.

Answered cases to consult:
FSMRWTFRYWMN: 0.07
PDKRIHLIKLLN: 0.0865
AITLPMCPLYLR: 0.135

Lab note: measured protein stability index of LKILRQKMNKQN was 0.246

Lab note: measured protein stability index of LKILRAKMNHQN was 0.223

Lab note: measured protein stability index of VRGAVGGIRLVG was 0.589

###

test system: Saccharomyces cerevisiae; assay: protein stability index of tFT-peptide fusion (C-terminal peptide) (PSI (0-1 scale)); higher = more stable (slower turnover); settings: genetic background: wild type; temperature: 30 C
value.type: protein stability index
Answer with a bare number; do not write a unit.

SPSYACLPPPIP: 0.746
NSRMSRYTTPYG: 0.681
AVAHLSCTSRFG: 0.694
ARLPLPGSPPFS: 0.719
VQYITSGASRWG: 0.631

Reported protein stability index (Saccharomyces cerevisiae) for entry LQALQTKPSQAL is 0.688

Reported protein stability index (Saccharomyces cerevisiae) for entry LRRVGKLRESGS is 0.688

###

tested on: Saccharomyces cerevisiae; assay: protein stability index of tFT-peptide fusion (C-terminal peptide) (PSI (0-1 scale)); higher = more stable (slower turnover); details: genetic background: wild type; temperature: 37 C
value.type: protein stability index
Answer with a bare number; do not write a unit.

Answered cases to consult:
WLLSFLRFLVLR: 0.32
FLYSVLLICKFI: 0.0829
WLFFVVLPVKAF: 0.154
RILKLPGHVNDV: 0.69
VCVAVCFVMCGG: 0.464

Lab note: measured protein stability index of NGLVCVFILSWY was 0.375

Lab note: measured protein stability index of LASSCYRHLLVV was 0.078

Lab note: measured protein stability index of RGPAYATCHLLC was 0.257

Lab note: measured protein stability index of ILRAGITYVYAV was 0.493

Lab note: measured protein stability index of GLLAEPALLLLS was 0.688

Lab note: measured protein stability index of RASLPSLFRSLL was 0.897

Lab note: measured protein stability index of SPCLPRGVLFLA was 0.437

Lab note: measured protein stability index of PSPFHSFYLRLI was 0.483

Lab note: measured protein stability index of VMLFYVGSGVVS was 0.671
